Recorded pEC50 for the following compounds
# System: CEM cells HIV-1 protection, formazan growth assay
# Assay summary: NCI AIDS Antiviral Assay
# Experimental: The ability of compounds to protect human CEM cells from HIV-1 infection is measured as a screen for new compounds capable of inhibiting the HIV virus. Five concentrations of drug were tested on uninfected and infected cells and cell growth was measured using a soluble formazan assay. […] Compounds that provided at least 50% protection were retested. Compounds that provided at least 50% protection on retest were listed as moderately active. […]
pEC50: −log10 of the molar value.

1) COc1cc(/C=C2\CCc3ccccc3C2=O)ccc1O | < 3.70
2) Cc1ccc([S+](c2ccccc2)c2cc(C)ccc2C)cc1 (stereo unspecified) | < 3.19
3) COc1ccc(C(=C2C=CC=C2)c2ccc(OC)cc2)cc1 | < 3.70
4) CCOC(=O)c1cc2c([nH]1)C(=O)CSC1=C2CCN1Cc1ccccc1 | < 4.30
5) CCCCCCC(O)C/C=C/CCCCCC/C(C(=O)OC)=C(/O)C(=O)OCC (stereo unspecified) | < 4.08

# input # pEC50 lookup, item COc1cccc(C2NC(=O)N3C(c4cccc(OC)c4)NC(=O)N23)c1 (stereo unspecified)
# output < 3.70

# input Recorded pEC50 of COC(=O)C1=C2Nc3ccccc3[C@@]23CCN(Cc2ccccc2)C3C[C@H]1C1=CC(OC)OC1OC (stereo partly specified) , please.
# output < 4.59

# input Suppose we examine the compound COc1ccc(CCc2cc(OC)c(O)c(OC)c2)cc1 ; what pEC50 value has been reported?
# output < 3.70

# input Look at this compound and give its reported pEC50. C/C(=N/NS(=O)(=O)c1ccc(N)cc1)c1ccccc1O
# output < 3.93

# input So what's the measured pEC50 for this one? CC1(C)OCN(c2ccc(Cl)cc2)Cn2c1nc1ccccc12
# output < 3.70

# input Consider the compound CSC1=NC=C(C#N)C2=NC(c3cccs3)NN12 (stereo unspecified) and give its measured pEC50.
# output < 3.47

Reference for the values: PubChem BioAssay AID179
